Reference source: patent US20120177664A1

biological target: T1, A beta oligomer (synthetic A beta1-40, HCl form, 0.1 mg/ml in PBS, incubated at 37 degrees C for one hour) (UniProt P05067 672-711); experiment: SPR (Biacore 3000)
T1 construct: domain: A beta1-40; non-fibrous multimer of the peptide; also called A beta 1-40 oligomer
koff values by entry
Report the value in s⁻¹ with no unit label.

Before answering, review these 4 worked examples.
IR-060 antibody (antibody, mouse IgG2a, V domains shown, mouse IgG2a) VH: DVQLVESGGGLVQPGGSRKLSCAASGFTFSSFGMHWVRQAPEKGLEWVAYISSGSSTIYYADTVKGRFTISRDNPKNTLFLQMTSLRSEDTAMYYCARGGNYLRYYAMDYWGQGTSVTVSS VL: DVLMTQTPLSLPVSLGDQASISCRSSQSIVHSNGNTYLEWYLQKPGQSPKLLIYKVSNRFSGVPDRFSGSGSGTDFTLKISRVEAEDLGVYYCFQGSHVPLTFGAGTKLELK :: 0.2
IR-132 antibody (antibody, mouse IgG2b, V domains shown, mouse IgG2b) VH: DVQLVESGGGLVQPGGSRKLSCAASGFTFSSFGMHWVRQAPEKGLEWVAYISSGSSTIYYADTVKGRFTISRDNPKNTLFLQMTSLRSEDTAMYYCARDGNYVGWFAYWGQGTLVTVSA VL: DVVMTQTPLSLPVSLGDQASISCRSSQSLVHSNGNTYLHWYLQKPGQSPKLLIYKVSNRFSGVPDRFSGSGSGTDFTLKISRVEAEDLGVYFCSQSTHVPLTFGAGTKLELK :: 0.00517
IR-063 antibody (antibody, mouse IgG2b, V domains shown, mouse IgG2b) VH: DVQLVESGGGLVQPGGSRKLSCAASGFTFSSFGMHWVRQAPEKGLEWVAYISSGSSTIYYADTVKGRFTISRDNPKNTLFLQMTSLRSEDTAMYYCAREGDFDYWGQGTTLTVSS VL: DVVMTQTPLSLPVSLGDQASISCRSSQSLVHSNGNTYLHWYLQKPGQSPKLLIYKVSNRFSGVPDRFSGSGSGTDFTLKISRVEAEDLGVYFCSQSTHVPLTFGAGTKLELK :: 0.145
IR-125 antibody (antibody, mouse IgG2b, V domains shown, mouse IgG2b) VH: DVQLVESGGGLVQPGGSRKLSCAASGFTFSSFGMHWVRQAPEKGLEWVAYISSGSSTIYYADTVKGRFTISRDNPKNTLFLQMTSLRSEDTAMYYCARAGGYSLSYAMDYWGQGTSVTVSS VL: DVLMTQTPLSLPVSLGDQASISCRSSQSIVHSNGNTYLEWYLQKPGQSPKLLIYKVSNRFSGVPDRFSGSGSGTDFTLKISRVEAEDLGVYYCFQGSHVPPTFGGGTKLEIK :: 0.00395

Problem: Give its koff value. Item: IR-028 antibody (antibody, V domains shown, mouse IgG2b) VH: DVQLVESGGGLVQPGGSRKLSCAASGFTFSSFGMHWVRQAPEKGLEWVAYISSGSSTIYYADTVKGRFTISRDNPKNTLFLQMTSLRSEDTAMYYCARTGTGAMDYWGQGTSVTVSS VL: DVVMTQTPLSLPVSLGDQASISCRSSQSLVHSNGNTYLHWYLQKPGQSPKLLIYKVSNRFSGVPDRFSGSGSGTDFTLKISRVEAEDLGVYFCSQSTHVPPTFGGGTKLEIK
Solution: 0.27
